Assay: Selectivity index, ratio of IC50 for rat L6 cells to IC50 for Trypanosoma cruzi Tulahuen C4 amastigotes
Format: toxicity, cell-based
Details: read-out: Ratio IC50
Readout label: selectivity ratio

Item smiles	Observed result
O=[N+]([O-])c1ncn(CCCCNc2nc3ccc(Cl)cc3s2)n1	314
Cl.Cl.O=[N+]([O-])c1ncn(CCCN2CCN(c3ccccn3)CC2)n1	180
O=[N+]([O-])c1ncn(CCCNc2nc3ccc(Cl)cc3s2)n1	1720
Cc1ccc(N2CCN(CCCn3cnc([N+](=O)[O-])n3)CC2)cc1.Cl.Cl	289
O=[N+]([O-])c1ncn(CCCNc2nc3ccccc3s2)n1	287
Cl.Cl.Cl.Cl.O=[N+]([O-])c1nccn1CCCN1CCN(Cc2ccc(Cl)c(Cl)c2)CC1	8.4
Cl.Cl.N#Cc1ccccc1N1CCN(CCCn2cnc([N+](=O)[O-])n2)CC1	137
O=[N+]([O-])c1nccn1CCCCNc1nc2ccc(Cl)cc2s1	24.6
COc1ccc(N2CCN(CCCn3cnc([N+](=O)[O-])n3)CC2)cc1.Cl.Cl	224
O=[N+]([O-])c1nccn1CCCNc1nc2ccccc2s1	36.1
Cl.O=C(C1CC1)N1CCN(CCCn2cnc([N+](=O)[O-])n2)CC1	43.1
Cl.Cl.O=[N+]([O-])c1ncn(CCCN2CCN(c3ncccn3)CC2)n1	152
O=[N+]([O-])c1nccn1CCCNc1nc2ccc(Cl)cc2s1	15.3
Cl.Cl.Cl.Cl.O=[N+]([O-])c1ncn(CCCN2CCN(c3ccc(Cl)c(Cl)c3)CC2)n1	868
COc1ccc(N2CCN(CCCn3ccnc3[N+](=O)[O-])CC2)cc1.Cl.Cl	4
O=[N+]([O-])c1ncn(CCCN2CCN(c3ccncc3)CC2)n1	17.5
Cl.Cl.Cl.Cl.O=[N+]([O-])c1ncn(CCCN2CCN(Cc3ccc(Cl)c(Cl)c3)CC2)n1	117
